# target: T1, recombinant human TR-2 with a C-terminal hexahistidine tag (TR-2-His) (human, UniProt O14763 56-207)
# T1 construct: also called soluble TR-2-His
# protocol: SPR Biacore 2000; antibody captured on anti-human antibody chip, 226 nM TR-2-His injected, 25 C, 1:1 model;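 note: goat anti-human capture surface amine-coupled on CM5 chip, HBS-P running buffer with BSA, responses normalized to captured antibody level, kinetics from global 1:1 fitting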
Quick reference for koff among some binders
Hi! Could you send only the number? It should be in s⁻¹, unit omitted.

Examples from the recorded data:
INSERT INTO measurements (binder, result_units, test_result) VALUES
  ('anti-TR-2 antibody J (antibody, V domains shown, also called Ab J) VH: QVQLVESGGGVVQPGRSLRLSCAASGFTFNNYGMHWVRQAPGKGLEWVAVIWYDGSNKYYADSVKGRFTISRDNSKNTLYLQMNSLRAEDTAVYYCARDRTVYSNSSPFYYYYYGMDVWGQGTTVTVSS VL: DIQMTQSPSSLSASVGDRVTITCRTSQSISTYLNWYQQKPGKAPKLLISATSSLQSGVPSRFSGSGSGTDFTLTISSLQPEDFATYYCQQSYSTPLTFGGGTKVEIK', 's⁻¹', 0.0071),
  ('anti-TR-2 antibody M (antibody, V domains shown, also called Ab M) VH: EVQVVESGGGLVKPGGSLRLSCAASGFTFSSYSMNWVRQAPGKGLEWVSSISSSSSYIYYADSVKGRFTISRDNAKNSLYLQMNSLRAEDTAVYYCARGGSSWYGDWFDPWGQGTLVTVSS VL: DIQMTQSPSSVSASVGDRVTITCRASQGISSWLVWYQQKPGKAPKLLIYAASSLQSGVPSRFSGSGSGTDFTLTISSLQPEDFATYYCQQANSFPFTFGGGTKVEIK', 's⁻¹', 0.012);

Moving on to another binder below.
Given anti-TR-2 antibody E (antibody, V domains shown, also called Ab E) VH: QVQLVESGGGLVKPGGSLRLSCAASGFTFSDYYMNWIRQAPGKGLEWVSHISSSGSILDYADSVKGRFTISRDNAKNSLYLQMNSLRVEDTAVYYCARDGAAAGTDAFDLWGQGTMVTVSS VL: DIQMTQSPSSLSASVGDRVTITCRSSQSISNYINWYQQRPGKAPNLLIHDVSSFQSAVPSRFSRSGSGTVFTLTISSLQPEDFATYFCQQTYITPFTFGPGTKVDIK , state its recorded koff.
0.0018
